B1: Hairpin Ribozyme (parent)
chain: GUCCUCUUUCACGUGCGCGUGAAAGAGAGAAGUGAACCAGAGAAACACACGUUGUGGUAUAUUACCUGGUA

# Variants of: B1
# test.summary: self-cleavage, relative activity (ratio to wild type); higher = more cleavage; co-transcriptional
measured.endpoint: self-cleavage

{"mutant.id": "A44G G51U", "endpoint.result": 0.175}
{"mutant.id": "A43U A71U", "endpoint.result": 0.179}
{"mutant.id": "U63A G68U", "endpoint.result": 0.225}
{"mutant.id": "A44C A71U", "endpoint.result": 0.152}
{"mutant.id": "U5C C48U", "endpoint.result": 0.0847}
{"mutant.id": "U5C G57U", "endpoint.result": 0.138}
{"mutant.id": "A30G G32A", "endpoint.result": 0.137}
{"mutant.id": "A11C G54U", "endpoint.result": 0.583}
{"mutant.id": "U5C U67A", "endpoint.result": 0.0797}
{"mutant.id": "C12A A28G", "endpoint.result": 0.836}
{"mutant.id": "A39U G69U", "endpoint.result": 0.151}
{"mutant.id": "C16A U58C", "endpoint.result": 0.937}
{"mutant.id": "G25A G69U", "endpoint.result": 0.0604}
{"mutant.id": "A36U C38U", "endpoint.result": 0.112}
{"mutant.id": "C18U U63G", "endpoint.result": 0.278}
{"mutant.id": "G25U A39U", "endpoint.result": 0.242}
{"mutant.id": "C12A G27U", "endpoint.result": 0.249}
{"mutant.id": "U7C U52C", "endpoint.result": 0.528}
{"mutant.id": "A28G U52A", "endpoint.result": 0.814}
{"mutant.id": "C6A U58A", "endpoint.result": 0.457}
{"mutant.id": "C50A U70A", "endpoint.result": 0.303}
{"mutant.id": "U9A C65A", "endpoint.result": 0.69}
{"mutant.id": "A26C U67C", "endpoint.result": 0.21}
{"mutant.id": "A26U A31G", "endpoint.result": 0.389}
{"mutant.id": "A35C G56U", "endpoint.result": 0.153}
{"mutant.id": "C16A C50A", "endpoint.result": 0.361}
{"mutant.id": "A11C A30G", "endpoint.result": 0.0919}
{"mutant.id": "G54U U58A", "endpoint.result": 0.302}
{"mutant.id": "A30U C66G", "endpoint.result": 0.165}
{"mutant.id": "A45U U67C", "endpoint.result": 0.0755}
{"mutant.id": "G32C U58A", "endpoint.result": 0.116}
{"mutant.id": "A23G U55G", "endpoint.result": 0.192}
{"mutant.id": "C16G C37U", "endpoint.result": 0.346}
{"mutant.id": "G21U U62G", "endpoint.result": 0.156}
{"mutant.id": "G34A C66G", "endpoint.result": 0.184}
{"mutant.id": "U14G A23U", "endpoint.result": 0.68}
{"mutant.id": "A23G A44C", "endpoint.result": 0.0975}
{"mutant.id": "C12A A30U", "endpoint.result": 0.172}
{"mutant.id": "C48U C66A", "endpoint.result": 0.176}
{"mutant.id": "G40C G54A", "endpoint.result": 0.124}
{"mutant.id": "C3G C65A", "endpoint.result": 0.263}
{"mutant.id": "G21C C37G", "endpoint.result": 0.425}
{"mutant.id": "G29U G40C", "endpoint.result": 0.0749}
{"mutant.id": "C6G G56U", "endpoint.result": 0.141}
{"mutant.id": "C10G A24G", "endpoint.result": 0.63}
{"mutant.id": "C6A G15C", "endpoint.result": 0.586}
{"mutant.id": "C38G G69C", "endpoint.result": 0.241}
{"mutant.id": "C16A C66A", "endpoint.result": 0.108}
{"mutant.id": "U5G G19A", "endpoint.result": 0.243}
{"mutant.id": "G1C C10A", "endpoint.result": 0.102}
{"mutant.id": "G40U U55C", "endpoint.result": 0.171}
{"mutant.id": "C6A A41C", "endpoint.result": 0.873}
{"mutant.id": "C3U G21C", "endpoint.result": 0.32}
{"mutant.id": "G68C A71G", "endpoint.result": 0.233}
{"mutant.id": "G54C", "endpoint.result": 0.433}
{"mutant.id": "G1A G17A", "endpoint.result": 0.0844}
{"mutant.id": "A36C G40U", "endpoint.result": 0.122}
{"mutant.id": "G40U A41G", "endpoint.result": 0.419}
{"mutant.id": "A31G U58A", "endpoint.result": 0.323}
{"mutant.id": "C48G G51C", "endpoint.result": 0.0824}
{"mutant.id": "G1U A41U", "endpoint.result": 0.0959}
{"mutant.id": "A23G A41U", "endpoint.result": 1.09}
{"mutant.id": "A22U G29A", "endpoint.result": 0.13}
{"mutant.id": "A43U C50G", "endpoint.result": 0.107}
{"mutant.id": "U33G A47U", "endpoint.result": 0.105}
{"mutant.id": "A30C U62A", "endpoint.result": 0}
{"mutant.id": "G40U C65G", "endpoint.result": 0.099}
{"mutant.id": "C4A U5C", "endpoint.result": 0.23}
{"mutant.id": "C4G U9G", "endpoint.result": 0.164}
{"mutant.id": "C6A A23U", "endpoint.result": 0.503}
{"mutant.id": "C18G G27U", "endpoint.result": 0.199}
{"mutant.id": "G21A A59G", "endpoint.result": 0.125}
{"mutant.id": "A35C U63C", "endpoint.result": 0.0565}
{"mutant.id": "G13U U33G", "endpoint.result": 0.0972}
{"mutant.id": "A11G G42U", "endpoint.result": 0.314}
{"mutant.id": "C3G U67G", "endpoint.result": 0.102}
